Endpoint Label: melting point

Exercise: # query: melting point of entry N#Cc1cc(-c2ncccc2C(=O)O)ccc1OCc1ccc(C(F)(F)F)cc1
Solution: 226 to 227 °C

Exercise: # query: melting point of entry COc1ccc(CCOc2ccc(-c3ncccc3C(=O)O)cc2C#N)cc1
Solution: 183 to 184 °C

Exercise: # query: melting point of entry N#Cc1cc(-c2ncccc2C(=O)O)ccc1OCCCCc1ccccc1F
Solution: 151 to 152 °C

Exercise: # query: melting point of entry COc1ccc(-c2ncccc2C(=O)O)cc1C#N
Solution: 254 to 255 °C

Exercise: # query: melting point of entry N#Cc1cc(-c2ncccc2C(=O)O)ccc1OCCCCc1ccccc1
Solution: 163 to 164 °C

Exercise: # query: melting point of entry CCCCCCOc1ccc(-c2ncccc2C(=O)O)cc1C#N
Solution: 187 to 188 °C

Exercise: # query: melting point of entry CC(C)(C)COc1ccc(-c2ncccc2C(=O)O)cc1C#N
Solution: 231 to 232 °C

Exercise: # query: melting point of entry CC(C)(C)CCOc1ccc(-c2ncccc2C(=O)O)cc1C#N
Solution: 206 to 207 °C

Exercise: # query: melting point of entry N#Cc1cc(-c2ncccc2C(=O)O)ccc1OCCCc1ccc(C(F)(F)F)cc1
Solution: 183 to 184 °C

###

Biological target: xanthine oxidase (Bos taurus)
Construct: derived from milk; manufactured by Sigma
Sequence (P80457 whole entry): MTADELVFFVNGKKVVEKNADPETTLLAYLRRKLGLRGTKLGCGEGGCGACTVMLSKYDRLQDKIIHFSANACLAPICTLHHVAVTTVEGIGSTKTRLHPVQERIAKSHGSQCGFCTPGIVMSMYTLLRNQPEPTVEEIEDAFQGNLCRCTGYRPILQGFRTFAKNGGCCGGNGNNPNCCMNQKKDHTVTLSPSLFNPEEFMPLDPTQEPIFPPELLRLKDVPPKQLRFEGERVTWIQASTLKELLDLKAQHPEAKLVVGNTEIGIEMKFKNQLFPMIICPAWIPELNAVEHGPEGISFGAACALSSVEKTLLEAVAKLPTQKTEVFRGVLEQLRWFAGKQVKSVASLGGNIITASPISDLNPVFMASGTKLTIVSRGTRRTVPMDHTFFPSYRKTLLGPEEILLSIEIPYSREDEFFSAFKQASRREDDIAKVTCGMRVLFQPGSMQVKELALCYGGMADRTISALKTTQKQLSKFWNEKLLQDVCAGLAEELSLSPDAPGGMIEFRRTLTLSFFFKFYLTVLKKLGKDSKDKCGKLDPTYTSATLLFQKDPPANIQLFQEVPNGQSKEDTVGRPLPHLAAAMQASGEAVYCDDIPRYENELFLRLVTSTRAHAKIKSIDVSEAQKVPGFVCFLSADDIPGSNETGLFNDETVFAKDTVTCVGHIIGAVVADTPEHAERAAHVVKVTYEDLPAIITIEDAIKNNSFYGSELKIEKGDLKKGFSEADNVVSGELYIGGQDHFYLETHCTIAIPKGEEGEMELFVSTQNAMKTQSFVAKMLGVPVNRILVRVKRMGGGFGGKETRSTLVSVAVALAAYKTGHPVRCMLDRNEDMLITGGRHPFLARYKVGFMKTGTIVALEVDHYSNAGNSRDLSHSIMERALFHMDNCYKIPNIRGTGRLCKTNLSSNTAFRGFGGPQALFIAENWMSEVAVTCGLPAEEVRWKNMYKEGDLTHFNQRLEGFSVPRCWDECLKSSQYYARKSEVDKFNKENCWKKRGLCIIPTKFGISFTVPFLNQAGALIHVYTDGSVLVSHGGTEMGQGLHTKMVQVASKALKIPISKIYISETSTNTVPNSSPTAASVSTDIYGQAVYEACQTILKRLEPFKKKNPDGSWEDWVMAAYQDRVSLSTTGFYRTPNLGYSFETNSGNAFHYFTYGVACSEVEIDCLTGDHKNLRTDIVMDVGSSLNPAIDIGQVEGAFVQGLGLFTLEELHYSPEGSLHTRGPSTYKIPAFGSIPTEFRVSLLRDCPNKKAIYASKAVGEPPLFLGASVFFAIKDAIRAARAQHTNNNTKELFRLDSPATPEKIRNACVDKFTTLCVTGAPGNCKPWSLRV
Assay: Test for xanthine oxidase inhibitory activity
Details: xanthine oxidase derived from milk (Sigma); substrate xanthine; uric acid production at OD 292 nm, 37° C.
Procedure: Evaluation of inhibitory activity of the present invention to xanthine oxidase was conducted using xanthine as a substrate by measuring the amount of uric acid produced by xanthine oxidase which is an oxidizing enzyme therefor. […] The changes with elapse of time in OD 292 nm based on the production of uric acid was measured using a microplate spectrophotometer warmed at 37° C. whereby the initial reaction velocity was measured. […]
What IC50 was measured for each of the following?
Respond numerically; units are nM and should not be typed.

Exercise: # query: IC50 of entry N#Cc1cc(-c2ncccc2C(=O)O)ccc1OCCCc1ccccc1F
Solution: 49

Exercise: # query: IC50 of entry COc1ccc(CCOc2ccc(-c3ncccc3C(=O)O)cc2C#N)cc1
Solution: 58

Exercise: # query: IC50 of entry Cc1ccc(C)c(CCOc2ccc(-c3ncccc3C(=O)O)cc2C#N)c1
Solution: 72

Exercise: # query: IC50 of entry N#Cc1cc(-c2ncccc2C(=O)O)ccc1OCc1ccc(C(F)(F)F)cc1
Solution: 83

Exercise: # query: IC50 of entry N#Cc1cc(-c2ncccc2C(=O)O)ccc1OCCc1ccccc1Cl
Solution: 65

Exercise: # query: IC50 of entry COc1ccc(CCCCOc2ccc(-c3ncccc3C(=O)O)cc2C#N)cc1
Solution: 18

Exercise: # query: IC50 of entry CC(C)(C)CCOc1ccc(-c2ncccc2C(=O)O)cc1C#N
Solution: 18

Exercise: # query: IC50 of entry CCC(C)(C)COc1ccc(-c2ncccc2C(=O)O)cc1C#N
Solution: 28

# credit: patent US20100004459A1
